Where do the numbers come from? From the RNAGym collection of RNA variant scans (doi:10.1126/science.aae0568).

B1: tRNA (parent)
chain: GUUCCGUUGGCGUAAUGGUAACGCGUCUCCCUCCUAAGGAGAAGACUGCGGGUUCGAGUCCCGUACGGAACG

Variants of: B1
Assay: yeast fitness relative to wild type (ratio to wild type); higher = fitter; tRNA-Arg(CCU), competitive growth, 37 C, YPD
This sample holds only a part of the variants without activity.
// reported yeast fitness for each item listed
Give the figure only, with no unit attached.

Example results:
variant-label	yeast fitness
G48C C49U A70C	0.592
G9A A14G C22U C31A C34U A36C A45C C61U U64A	0.546
G10C A15C C24U U54C C60A C62A	0.585

Give the measured yeast fitness of U2C A42U .
0.937

Query: yeast fitness; subject: C34U A40C
0.613

Quick one: yeast fitness of U16A G48C ?
0.967

Look up yeast fitness: C31A A45U
1.02

If you can, please state the reported yeast fitness value of G12C G48C A70U .
0.539

What measured yeast fitness goes with G25U C30A C46A ?
0.581

Would you kindly share the measured yeast fitness for U28G A70G ?
0.826

yeast fitness lookup needed for G12C U16C A42C C49U , thanks.
0.594
